Tested system: RORγt (Mus musculus, UniProt P51450, T352K)
Sequence (P51450 with tags, fused parts or gaps T352K): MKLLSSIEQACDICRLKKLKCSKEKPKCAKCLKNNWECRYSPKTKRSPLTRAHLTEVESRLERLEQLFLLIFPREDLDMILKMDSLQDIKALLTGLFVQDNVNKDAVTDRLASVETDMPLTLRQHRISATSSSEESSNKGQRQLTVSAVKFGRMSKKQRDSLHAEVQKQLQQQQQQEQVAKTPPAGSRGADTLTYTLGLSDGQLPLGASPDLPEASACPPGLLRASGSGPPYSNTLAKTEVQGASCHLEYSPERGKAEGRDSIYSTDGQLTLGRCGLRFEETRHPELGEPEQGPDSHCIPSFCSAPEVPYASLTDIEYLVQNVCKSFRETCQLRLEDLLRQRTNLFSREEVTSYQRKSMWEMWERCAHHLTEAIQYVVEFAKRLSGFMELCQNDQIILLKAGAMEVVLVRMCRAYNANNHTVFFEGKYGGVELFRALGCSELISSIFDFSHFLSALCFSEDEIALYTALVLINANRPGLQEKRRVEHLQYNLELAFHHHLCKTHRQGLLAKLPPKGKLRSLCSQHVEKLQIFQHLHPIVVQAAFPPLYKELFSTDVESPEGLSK
Test method notes: RORγt S2 cell Gal4-luciferase reporter assay
Condition details: IC50(μM), Drosophila S2 cells, Gal4-RORγt luciferase reporter, 20 hr
Value type: IC50

Below, 3 compounds whose answers are already recorded.
COc1cc(O)c(C(CC(=O)N2CCCC(C)C2)c2ccc(C)cc2)c(OC)c1 (stereo not shown) [Compound 57]
1 to 10 µM
COc1cc(O)c(C(CC(=O)N2CC(C)CC(C)C2)c2ccc(OCc3ccccc3)cc2)c(OC)c1 (stereo not shown) [Compound 92]
1 to 10 µM
CC1CCCN(C(=O)CC(c2ccccc2)c2ccc(O)cc2)C1 (stereo not shown) [Compound 53]
> 50 µM

Next up:
Any idea what its IC50 is? The compound is COc1ccc2ccccc2c1C(c1ccc(F)cc1)C(C)(C)C(=O)N1CC(C)OC(C)C1 (stereo not shown) [Compound 156]
11 to 50 µM

----------
Tested system: RORγt (Mus musculus, UniProt P51450, T352K)
Test method notes: RORγt S2 cell Gal4-luciferase reporter assay
Condition details: IC50(μM), Drosophila S2 cells, Gal4-RORγt luciferase reporter, 20 hr
Value type: IC50

Worked cases, IC50 given:
CC1CCCN(C(=O)CC(c2ccc3c(c2)OCO3)c2ccc3ccccc3c2O)C1 (stereo not shown) [Compound 68]
> 50 µM
CC1CCCN(C(=O)CC(c2ccc3c(c2)OCO3)c2cc(C(C)C)ccc2O)C1 (stereo not shown) [Compound 114]
11 to 50 µM
COc1cc(OC)c(C(c2ccccc2)C(C)(C)C(=O)N2CC3CCC2C3)c(OC)c1 (stereo not shown) [Compound 152]
11 to 50 µM

Turning now to a further record.
Give the measured IC50 of COc1cc(O)c(C(CC(=O)N2CC(C)CC(C)C2)c2ccc(CN3CCOCC3)cc2)c(OC)c1 (stereo not shown) [Compound 90] .
1 to 10 µM

----------
Tested system: RORγt (Mus musculus, UniProt P51450, T352K)
Test method notes: RORγt S2 cell Gal4-luciferase reporter assay
Condition details: read-out: Efficacy (%)
Value type: Emax (%)
Write the number in % without appending the unit.

COc1cc(O)c(C(CC(=O)N2CCCC2)c2ccc3c(c2)OCO3)c(OC)c1 (centres unmarked) [Compound 37]
27.1
CCC1CCCN(C(=O)CC(c2ccc3c(c2)OCO3)c2c(O)cc(OC)cc2OC)C1 (centres unmarked) [Compound 7]
96.2
COc1ccc(C)c(O)c1C(CC(=O)N1CCCC(C)C1)c1ccc2c(c1)OCO2 (centres unmarked) [Compound 130]
77.5
COc1cc(O)c(C(CC(=O)N2CC(C)CC(C)C2)c2ccc3c(c2)OCCO3)c(OC)c1 (centres unmarked) [Compound 76]
95.4

So what does the record say about Emax for COc1cc(O)c(C(CC(=O)N2CC(C)CC(C)C2)c2ccccc2Cl)c(OC)c1 (centres unmarked) [Compound 103] ?
95.8

Which Emax value is on record for COc1cc(O)c(C(CC(=O)N2CCCC(CO)C2)c2ccc3c(c2)OCO3)c(OC)c1 (centres unmarked) [Compound 20] ?
44.7

# get_value(readout='Emax', item= COc1cc(O)c(C(CC(=O)N2CC(C)CC(C)C2)c2ccc(SC)cc2)c(OC)c1 (centres unmarked) [Compound 105] )
94.7

# query: Emax of entry COc1cc(O)c(C(CC(=O)N2CC(C)CC(C)C2)c2cccc(C#N)c2)c(OC)c1 (centres unmarked) [Compound 87]
96.6

Each recorded value in this set is attributed to patent US10561666B2.
